# SYSTEM: Neuromedin-K receptor (Homo sapiens)
# Sequence (P29371 whole entry): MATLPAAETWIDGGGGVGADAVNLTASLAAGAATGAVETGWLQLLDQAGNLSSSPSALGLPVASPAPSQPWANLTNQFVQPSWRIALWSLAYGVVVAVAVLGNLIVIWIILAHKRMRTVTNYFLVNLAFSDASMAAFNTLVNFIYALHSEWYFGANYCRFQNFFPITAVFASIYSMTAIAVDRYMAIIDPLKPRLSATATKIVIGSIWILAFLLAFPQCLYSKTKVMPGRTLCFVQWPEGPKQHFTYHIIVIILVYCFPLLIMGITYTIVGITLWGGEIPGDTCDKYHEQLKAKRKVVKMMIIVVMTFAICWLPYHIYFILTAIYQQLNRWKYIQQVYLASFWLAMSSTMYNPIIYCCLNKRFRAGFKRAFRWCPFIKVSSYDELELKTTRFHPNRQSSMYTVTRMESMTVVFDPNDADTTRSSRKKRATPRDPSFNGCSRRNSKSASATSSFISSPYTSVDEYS
# PROTOCOL_SUMMARY: Displacement of [125I]neurokinin B from cloned human NK3 receptor expressed in CHO cells
# Format: cell-based
REPORTED_METRIC: IC50

Worked set:
INSERT INTO results (query_smiles, reported) VALUES
  ('CCN(NC(=O)c1c(OC)c(-c2ccccc2)nc2ccccc12)c1ccccc1', '0.016 µM (antagonist)'),
  ('COC(=O)N(NC(=O)c1c(OC)c(-c2ccccc2)nc2c(F)cccc12)c1ccccc1', '0.0041 µM (antagonist)'),
  ('COC(=O)N(NC(=O)c1c(OC)c(-c2ccccc2)nc2ccccc12)c1ccccc1F', '0.053 µM (antagonist)'),
  ('COc1c(-c2ccccc2)nc2ccccc2c1C(=O)NNc1ccccc1', '0.032 µM (antagonist)');

API: the following record is the query input.
Specify reported IC50 for the compound shown: `COc1c(-c2ccccc2)nc2ccccc2c1C(=O)NN(C(=O)OCC(C)C)c1ccccc1`
0.19 µM (antagonist)
